# Tested on: MS2 coat protein
# METHOD DESCRIPTION: apparent KD of MS2 coat protein; designed switch direction (-1 OFF switch, 1 ON switch): -1; higher = weaker reporter binding
# RUN CONDITIONS: input ligand: microRNA oligo, concentration not stated
READOUT LABEL: apparent KD of MS2 coat protein (nM)
Answers are plain numbers, in nM.

- CCCGAGCAUGUAGGAUAUGGCUCGGUGUCUGGGCCAGAAGGACAUGAGGAUCACCCAUGUCUGCGGGUGUGGAUAUGAUUUGGG [-32, -31 kcal A 20%] (Eterna round: R96, puzzle: Exclusion NG 1): 14.5

Please state, for each entry, its recorded apparent KD of MS2 coat protein.
1. CCAGCGGACAAAGGAUAUUGCGGUGGCCGGCUCGGCGUACCGAGCCUACAUGAGGAUCACCCAUGUAAGAAGGUUGUCGUAGGA [Mat - Exclusion NG 2 - Mod of JL - D72] (Eterna round: R96, puzzle: Exclusion NG 2)
2. UGUUGUCGCGCAGGAUAUGGCCAACAGGCCCUAGGAUAUCCGAAAGGAGAAGGAGCGCCAACAGGCGAGAAGGGCGGGACAACU [pwkr exNG2 2xF7 2xFMN.16] (Eterna round: R96, puzzle: Exclusion NG 2)

Reply:
[12.2, 4.03]

Ask: Provide one value: measured apparent KD of MS2 coat protein of GUAAAACAUGUAGGAUAUGCGUGGCAAAGCUAUGCAGAAGGACAUGAGGAUCACCCAUGUUAAAGCGUCUGCGUACAGAUGCAA [Mat - Exclusion NG 1 - Mod of JL - D95] (Eterna round: R96, puzzle: Exclusion NG 1)
Reply: 30.5

---

Exercise: state measured apparent KD of MS2 coat protein for each of the sequences provided.
# Tested on: MS2 coat protein
# METHOD DESCRIPTION: apparent KD of MS2 coat protein; designed switch direction (-1 OFF switch, 1 ON switch): -1; higher = weaker reporter binding
# RUN CONDITIONS: input ligand: none
Answers are plain numbers, in nM.

Please state, for each entry, its recorded apparent KD of MS2 coat protein.
1. GGUAUACAUGAGGAUCACCCAUGUCAGGAUAUGGUAUCCUGUGCCGAAAGGCACAGGUCCAGAAGGGACGAUAG [AK-MS2ROC-r4-exclusion1-5.2] (Eterna round: R97, puzzle: Exclusion 1)
2. GCCUAACAUGAGGAUCACCCAUGUCAGGAUAUCCAUAAACACCGGGAUGUACUGGACGGGAGAAGGGACAGGGC [Escelazari] (Eterna round: R97, puzzle: Exclusion 1)
3. AAAUCGGUAGAGGAUAUUGUACAGGAAACGGUGCAAGAAGGUUACACAUGAGGAUCACCCAUGUUAAAUUGCGA [EX6 #52] (Eterna round: R97, puzzle: Exclusion 6)
4. ACGCAUUGCCAAAGGUAAUGCGUUACAUGAGGAUCACCCAUGUAGGAUAUGGUAGGCAAAGCUUACCAGAAGGACAUGAUAAUU [Mat - Exclusion NG 3 - Mod of JL - D7] (Eterna round: R96, puzzle: Exclusion NG 3)
5. GUUAACGAAGAGGAUAUAUGAUAUCAAAGCUUCAUAGAAGGCUUCACAUGAGGAUCACCCAUGUGAUCUUCUUU [jl-ex6-4.09 ViennaUCT mod] (Eterna round: R97, puzzle: Exclusion 6)
6. AAGACAAAUGUAGGAUAUGCGUGGCGAAGCUAUGCAGAAGGACAUGAGGAUCACCCAUGUCUAAGCGUCUGCGUACAGAUGCUA [JL eng1 1.35 mod 8] (Eterna round: R96, puzzle: Exclusion NG 1)
7. AGAUCGAGUGUGAGGAUAUUGACCGGACGACCCAUCGAGAAGGCACAUGAGGAUCACCCAUGUGAUUCGGUUCA [Brourd's EX4 #57] (Eterna round: R97, puzzle: Brourd's mod of Exclusion 4)

Reply:
91.7
51.4
17.3
57
15.1
18.4
15.4

Please state, for each entry, its recorded apparent KD of MS2 coat protein.
1. GCUAGUCAUGUCAGGAUAUGCUGUACCUUGGUACAGCAGAAGGGACAUGAGGAUCACCCAUGUGCCUAGCUAGC [JL-BMX4-4.07] (Eterna round: R97, puzzle: Brourd's mod of Exclusion 4)
2. GAUCAUGCAGGAUAUACAUGGAACAUUAAAUCAUGAAUUCUACAUGAGGAUCACCCAUGUAGAAGGGCAUGAUC [Omei Ex2 A17] (Eterna round: R97, puzzle: Exclusion 2)
3. UCCGUGUCAGGAUAUGCUAGCGCAAAGUUGCCCGCGCUGUAGCAGAAGGGACAUGAGGAUCACCCAUGUCUACA [Exclusion 4 (Mod of Nando's EX4 C.10 cleaner dot)] (Eterna round: R97, puzzle: Exclusion 4)

Reply:
1: 37.7; 2: 72.1; 3: 20.4

Please state, for each entry, its recorded apparent KD of MS2 coat protein.
1. AUAAUGUCAGGAUAUACUAAUGAUGAAUGAUUAGACAUUAUGUAGAAGGGACAUGAGGAUCACCCAUGUAAUAU [EX4 #2] (Eterna round: R97, puzzle: Exclusion 4)
2. ACAUGUUAUCCAUGAUAUCACAUGAGGAUCACCCAUGUUAUGGCGAUUUUGAGGUGUAAGUUUGUUGCUCGUCUUAU [JR_STOV1_Sub059] (Eterna round: R97, puzzle: Sensor, turn-off variant 1)
3. AGGUGUAGAGGAUAUCUCUUCUCUCACAUGAGGAUCACCCAUGUCCUGGUCACCAAGGAGAGAGAAGGCUACACCA [Omei Ex5 D9] (Eterna round: R97, puzzle: Exclusion 5)
4. AAUGAUUGACGAGGAUAUUGUGUUAGAUCACGACGAGAAGGCGUCUGUCACAUGAGGAUCACCCAUGUGAGCCUGGUGGAUAGA [Ex NG1 #78] (Eterna round: R96, puzzle: Exclusion NG 1)
5. CAAAAGAGAGGAUAUACAUGAGGAUCACCCAUGUAAAGUCCGCUGGUUGUUCAGAUAUGUAGAAGGCUCGUGUC [EX3 C.5] (Eterna round: R97, puzzle: Exclusion 3)
6. CCAAACAGAGGAUAUGCGAAUAAAUAAAACUUUUUUUUUUAACAUGAGGAUCACCCAUGUAGAAGGCUGCAACC [Ex2 #40] (Eterna round: R97, puzzle: Exclusion 2)
7. UGUUGUUACGCAGGAUAUUGCCAACAGGCAGUAGGAUAUCCGAAAGGAGAAGGACCGCCAACAGGCGAGAAGGGCGGGUUAACA [pwkr exNG2 2xF7 2xFMN.10] (Eterna round: R96, puzzle: Exclusion NG 2)

Reply:
1. 26.8
2. 65.3
3. 76.4
4. 50
5. 14.4
6. 19.5
7. 16.3

Ask: Provide one value: measured apparent KD of MS2 coat protein of CACCCUUCAGGAUAUACAUGAGGAUCACCCAUGUGUUCCAGCUAGGAAACUAGCAAAUGUAGAAGGGAAGGGUG [Mat - Exclusion 3 - JL Mod - D5] (Eterna round: R97, puzzle: Exclusion 3)
Reply: 108

Just for reference, the supplement of paper PMC9170038 is where these values come from.
